Target: T1, human Trop-2-hFc (Homo sapiens, UniProt P09758)
T1 construct: Monomeric Trop-2 extracellular domain prepared from papain digestion of Trop-2-Fc fusion protein
T1 sequence (P09758 27-274 limits assumed): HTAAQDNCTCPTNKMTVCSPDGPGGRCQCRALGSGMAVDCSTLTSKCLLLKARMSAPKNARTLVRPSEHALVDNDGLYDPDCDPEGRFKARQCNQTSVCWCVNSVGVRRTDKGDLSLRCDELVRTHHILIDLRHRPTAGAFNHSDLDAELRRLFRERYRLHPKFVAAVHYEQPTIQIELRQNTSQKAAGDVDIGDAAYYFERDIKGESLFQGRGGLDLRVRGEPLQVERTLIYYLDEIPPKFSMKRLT
Assay: Biacore SPR affinity of chimeric and humanized 7E6 Fab, human Trop-2
Assay type: binding
Conditions: recombinant Fab fragments injected over captured human Trop-2-hFc
readout_kind: kd (s⁻¹)

molecule	units_label	assay_result
h7E6_SVGL: humanized anti-Trop-2 antibody, VL SEQ ID NO: 6, VH SEQ ID NO: 5 (antibody, V domains shown) VH: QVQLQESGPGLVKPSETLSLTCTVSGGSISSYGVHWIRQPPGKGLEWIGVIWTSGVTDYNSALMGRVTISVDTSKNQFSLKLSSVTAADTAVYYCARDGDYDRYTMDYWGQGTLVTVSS VL: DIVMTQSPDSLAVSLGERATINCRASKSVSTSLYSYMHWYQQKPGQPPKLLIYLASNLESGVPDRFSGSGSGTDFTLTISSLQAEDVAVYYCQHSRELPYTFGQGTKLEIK	s⁻¹	3.27e-05
